molecular target: EGFR (Homo sapiens, UniProt P00533); assay: ADP-Glo kinase assay, EGFR; format: biochemical; set-up: purchased BPS Bioscience (assay run externally by the vendor); settings: Log[nM] 2.0; Set2
Sequence (P00533 25-1210): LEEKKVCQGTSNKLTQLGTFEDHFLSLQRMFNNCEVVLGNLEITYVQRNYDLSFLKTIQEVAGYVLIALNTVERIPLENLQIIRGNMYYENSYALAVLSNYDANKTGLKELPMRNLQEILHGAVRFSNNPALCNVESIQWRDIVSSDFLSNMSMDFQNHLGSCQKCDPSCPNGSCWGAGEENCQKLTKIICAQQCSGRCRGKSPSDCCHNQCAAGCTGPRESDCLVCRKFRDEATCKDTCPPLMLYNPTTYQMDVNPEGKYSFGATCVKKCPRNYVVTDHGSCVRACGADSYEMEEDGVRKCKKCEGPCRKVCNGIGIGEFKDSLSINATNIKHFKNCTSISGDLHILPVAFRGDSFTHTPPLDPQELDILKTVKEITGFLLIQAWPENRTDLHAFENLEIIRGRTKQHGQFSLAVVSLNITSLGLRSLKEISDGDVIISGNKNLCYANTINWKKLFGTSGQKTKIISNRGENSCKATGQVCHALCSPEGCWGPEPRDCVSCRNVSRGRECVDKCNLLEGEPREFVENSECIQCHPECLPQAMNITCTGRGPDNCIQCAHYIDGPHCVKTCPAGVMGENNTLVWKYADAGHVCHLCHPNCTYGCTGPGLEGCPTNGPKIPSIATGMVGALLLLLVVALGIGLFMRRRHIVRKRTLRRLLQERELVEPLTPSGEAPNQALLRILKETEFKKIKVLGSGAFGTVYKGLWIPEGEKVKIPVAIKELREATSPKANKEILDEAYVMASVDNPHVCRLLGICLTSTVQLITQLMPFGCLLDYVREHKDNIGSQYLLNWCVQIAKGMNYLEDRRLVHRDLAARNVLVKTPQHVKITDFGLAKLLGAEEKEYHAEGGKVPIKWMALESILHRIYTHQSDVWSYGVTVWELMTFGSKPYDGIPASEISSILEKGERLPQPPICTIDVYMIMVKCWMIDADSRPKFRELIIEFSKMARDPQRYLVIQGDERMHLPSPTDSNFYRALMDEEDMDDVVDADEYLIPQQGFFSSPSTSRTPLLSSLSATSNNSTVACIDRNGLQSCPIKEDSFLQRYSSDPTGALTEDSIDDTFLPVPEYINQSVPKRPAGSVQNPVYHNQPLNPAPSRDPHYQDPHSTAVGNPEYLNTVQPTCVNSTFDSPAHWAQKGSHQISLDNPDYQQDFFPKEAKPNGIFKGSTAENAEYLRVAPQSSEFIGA
Values of EGFR % Activity Set2 strictly less than 60% map to Fulfilled, and values of at least 60% map to Not fulfilled.

# smiles.record, target.under.test, cat
records = [
    ("Nc1nc(Nc2cccc(Br)c2)c2cc[nH]c2n1", "EGFR (Homo sapiens, UniProt P00533)", "Not fulfilled"),
    ("Brc1cccc(Nc2ncnc3[nH]ccc23)c1", "EGFR (Homo sapiens, UniProt P00533)", "Fulfilled"),
    ("Clc1ccc(Nc2ncnc3[nH]ccc23)cc1Cl", "EGFR (Homo sapiens, UniProt P00533)", "Fulfilled"),
    ("Clc1cccc(Nc2ncnc3[nH]ccc23)c1", "EGFR (Homo sapiens, UniProt P00533)", "Fulfilled"),
    ("Brc1ccc(Nc2ncnc3[nH]ccc23)cc1", "EGFR (Homo sapiens, UniProt P00533)", "Fulfilled"),
    ("Clc1ccccc1Nc1ncnc2[nH]ccc12", "EGFR (Homo sapiens, UniProt P00533)", "Not fulfilled"),
    ("c1ccc(Oc2ccc(Nc3ncnc4[nH]ccc34)cc2)cc1", "EGFR (Homo sapiens, UniProt P00533)", "Fulfilled"),
    ("c1ccc(Cc2ccc(Nc3ncnc4[nH]ccc34)cc2)cc1", "EGFR (Homo sapiens, UniProt P00533)", "Fulfilled"),
]

---

The reader will find reported EGFR % Activity Set2 values listed item by item below.
biological target: EGFR (Homo sapiens, UniProt P00533); test: ADP-Glo kinase assay, EGFR; assay type: biochemical; parameters: purchased BPS Bioscience (assay run externally by the vendor); conditions: Log[nM] 5.0; Set2

# compound, EGFR % Activity Set2
measured = [
    ("Cc1ccc(Nc2ncnc3[nH]ccc23)cc1 [Compound 9]", "1%"),
    ("FC(F)(F)c1cccc(Nc2ncnc3[nH]ccc23)c1 [Compound 13]", "0%"),
    ("Nc1nc(Nc2cccc(Br)c2)c2cc[nH]c2n1 [Compound 8]", "1%"),
    ("c1ccc(Oc2ccc(Nc3ncnc4[nH]ccc34)cc2)cc1 [Compound 17]", "4%"),
]

---

target: EGFR (Homo sapiens); assay: ADP-Glo kinase assay, EGFR; assay type: biochemical; set-up: purchased BPS Bioscience (assay run externally by the vendor); details: Log[nM] 3.5; Set2

# smiles.record, target.under.test, result.unit, EGFR % Activity Set2
measured = [
    ("Cc1ccc(Nc2ncnc3[nH]ccc23)cc1", "EGFR (Homo sapiens)", "%", 16),
    ("Brc1ccc(Nc2ncnc3[nH]ccc23)cc1", "EGFR (Homo sapiens)", "%", 5),
    ("c1ccc(Nc2ncnc3[nH]ccc23)cc1", "EGFR (Homo sapiens)", "%", 9),
    ("Clc1ccc(Nc2ncnc3[nH]ccc23)cc1Br", "EGFR (Homo sapiens)", "%", 1),
    ("Nc1nc(Nc2cccc(Br)c2)c2cc[nH]c2n1", "EGFR (Homo sapiens)", "%", 9),
    ("c1ccc(Cc2ccc(Nc3ncnc4[nH]ccc34)cc2)cc1", "EGFR (Homo sapiens)", "%", 3),
    ("c1ccc(Oc2ccc(Nc3ncnc4[nH]ccc34)cc2)cc1", "EGFR (Homo sapiens)", "%", 5),
]

---

Item-by-item account of Aurora A % Activity Set1
biological target: aurora A kinase (AURKA) (Homo sapiens, UniProt O14965); construct: purchased BPS Bioscience (assay run externally by the vendor); experiment: ADP-Glo kinase assay, Aurora A; format: biochemical; conditions: Log[nM] 0; Set1

# compound, Aurora A % Activity Set1, %
data = [
    ("c1ccc(Cc2ccc(Nc3ncnc4[nH]ccc34)cc2)cc1", 110),
    ("Clc1cccc(Nc2ncnc3[nH]ccc23)c1", 99),
    ("Cc1ccc(Nc2ncnc3[nH]ccc23)cc1", 101),
    ("c1ccc(Nc2ncnc3[nH]ccc23)cc1", 91),
    ("CN[C@@H]1C[C@H]2O[C@@](C)([C@@H]1OC)n1c3ccccc3c3c4c(c5c6ccccc6n2c5c31)C(=O)NC4 [Staurosporine, staurosporine, reference compound]", 109),
    ("Nc1nc(Nc2cccc(Br)c2)c2cc[nH]c2n1", 103),
    ("Fc1cc(Nc2ncnc3[nH]ccc23)ccc1Cl", 95),
    ("Brc1cccc(Nc2ncnc3[nH]ccc23)c1", 107),
    ("FC(F)(F)c1cccc(Nc2ncnc3[nH]ccc23)c1", 94),
    ("Clc1ccc(Nc2ncnc3[nH]ccc23)cc1Cl", 95),
    ("Clc1ccc(Nc2ncnc3[nH]ccc23)cc1", 98),
    ("Cc1cccc(Nc2ncnc3[nH]ccc23)c1", 101),
    ("Brc1ccc(Nc2ncnc3[nH]ccc23)cc1", 98),
    ("Cc1ccccc1Nc1ncnc2[nH]ccc12", 95),
    ("c1ccc(Oc2ccc(Nc3ncnc4[nH]ccc34)cc2)cc1", 100),
]

---

biological target: UniProt P00533; experiment: ADP-Glo kinase assay, EGFR; format: biochemical; parameters: purchased BPS Bioscience (assay run externally by the vendor); conditions: Log[nM] 2.5; Set2

# smiles.record, result.unit, EGFR % Activity Set2
rows = [
    ("Clc1ccc(Nc2ncnc3[nH]ccc23)cc1Cl", "%", 4),
    ("Clc1ccc(Nc2ncnc3[nH]ccc23)cc1Br", "%", 3),
    ("FC(F)(F)c1cccc(Nc2ncnc3[nH]ccc23)c1", "%", 19),
]

---

target: EGFR (Homo sapiens); test: ADP-Glo kinase assay, EGFR; type: biochemical; parameters: purchased BPS Bioscience (assay run externally by the vendor); details: Log[nM] 0; Set1
readout.name: EGFR % Activity Set1 (%)

# compound, readout.name, result.unit, measured.value
data = [
    ("Brc1ccc(Nc2ncnc3[nH]ccc23)cc1 [Compound 10]", "EGFR % Activity Set1", "%", 90),
    ("Nc1nc(Nc2cccc(Br)c2)c2cc[nH]c2n1 [Compound 8]", "EGFR % Activity Set1", "%", 97),
    ("c1ccc(Nc2ncnc3[nH]ccc23)cc1 [Compound 1]", "EGFR % Activity Set1", "%", 103),
    ("FC(F)(F)c1cccc(Nc2ncnc3[nH]ccc23)c1 [Compound 13]", "EGFR % Activity Set1", "%", 91),
]

---

biological target: EGFR (Homo sapiens, UniProt P00533); test: ADP-Glo kinase assay, EGFR; format: biochemical; parameters: purchased BPS Bioscience (assay run externally by the vendor); details: Log[nM] 4.5; Set3

# molecule, EGFR % Activity Set3
data = [
    ("Nc1nc(Nc2cccc(Br)c2)c2cc[nH]c2n1 [Compound 8]", "1%"),
    ("Clc1cccc(Nc2ncnc3[nH]ccc23)c1 [Compound 11]", "0%"),
    ("Clc1ccc(Nc2ncnc3[nH]ccc23)cc1Cl [Compound 5]", "0%"),
]

---

Biological target: aurora A kinase (AURKA) (Homo sapiens, UniProt O14965)
Construct: purchased BPS Bioscience (assay run externally by the vendor)
Sequence (O14965 1-403): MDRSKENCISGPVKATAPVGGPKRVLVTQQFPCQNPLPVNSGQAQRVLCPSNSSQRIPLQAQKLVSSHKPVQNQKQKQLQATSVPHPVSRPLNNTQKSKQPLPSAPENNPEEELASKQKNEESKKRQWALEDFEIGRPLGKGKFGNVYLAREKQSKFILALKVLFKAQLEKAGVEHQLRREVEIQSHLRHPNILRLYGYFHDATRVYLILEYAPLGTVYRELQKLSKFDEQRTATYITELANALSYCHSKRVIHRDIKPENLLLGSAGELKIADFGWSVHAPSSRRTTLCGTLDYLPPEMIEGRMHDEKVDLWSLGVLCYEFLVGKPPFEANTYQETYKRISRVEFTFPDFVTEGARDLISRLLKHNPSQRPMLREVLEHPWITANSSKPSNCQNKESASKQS
Assay: ADP-Glo kinase assay, Aurora A
Format: biochemical
Conditions: Log[nM] 4.5; Set2
# label = Fulfilled if Aurora A % Activity Set2 >= 10% else Not fulfilled

# compound, target.under.test, cat
records = [
    ("Cc1ccc(Nc2ncnc3[nH]ccc23)cc1 [Compound 9]", "aurora A kinase (AURKA) (Homo sapiens, UniProt O14965)", "Fulfilled"),
    ("Clc1ccccc1Nc1ncnc2[nH]ccc12 [Compound 14]", "aurora A kinase (AURKA) (Homo sapiens, UniProt O14965)", "Fulfilled"),
    ("Brc1ccc(Nc2ncnc3[nH]ccc23)cc1 [Compound 10]", "aurora A kinase (AURKA) (Homo sapiens, UniProt O14965)", "Not fulfilled"),
    ("c1ccc(Oc2ccc(Nc3ncnc4[nH]ccc34)cc2)cc1 [Compound 17]", "aurora A kinase (AURKA) (Homo sapiens, UniProt O14965)", "Fulfilled"),
    ("Clc1ccc(Nc2ncnc3[nH]ccc23)cc1Br [Compound 7]", "aurora A kinase (AURKA) (Homo sapiens, UniProt O14965)", "Fulfilled"),
    ("Nc1nc(Nc2cccc(Br)c2)c2cc[nH]c2n1 [Compound 8]", "aurora A kinase (AURKA) (Homo sapiens, UniProt O14965)", "Fulfilled"),
]
